measurement_target: human Nluc‐A1AR (Homo sapiens)
Sequence (P30542 2-326 limits assumed): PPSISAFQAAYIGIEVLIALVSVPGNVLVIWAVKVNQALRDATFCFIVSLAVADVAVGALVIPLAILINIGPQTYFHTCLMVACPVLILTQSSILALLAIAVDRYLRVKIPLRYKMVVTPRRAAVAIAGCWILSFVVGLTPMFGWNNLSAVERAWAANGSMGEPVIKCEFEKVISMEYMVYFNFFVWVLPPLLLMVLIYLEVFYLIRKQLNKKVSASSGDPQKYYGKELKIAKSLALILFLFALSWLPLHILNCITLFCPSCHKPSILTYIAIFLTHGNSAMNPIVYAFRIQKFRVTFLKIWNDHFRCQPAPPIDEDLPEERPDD
method: NanoBRET competition binding: inhibition of specific binding of CA200645
Parameters: expressed in transfected cells
assay_setup: Nluc‐human A1AR, 25 nM CA200645, HEK293T cells
Source text: The IC50 values from competition‐binding curves were used to calculate the K i of the unlabelled ligands using the Cheng–Prusoff equation: Ki=IC50/1+L/KD, where [L] is the concentration of fluorescent ligand in nM, and K D is the dissociation constant of the fluorescent ligand in nM. The K D values used were obtained from the saturation‐binding experiments.
Listed below: IC50 values for each entry.

| molecule | measurement_target | IC50, µM |
| --- | --- | --- |
| N#Cc1c(N)nc(SCc2csc(-c3ccc(Cl)cc3)n2)c(C#N)c1-c1ccc(OCCO)cc1 [Capadenoson] | human Nluc‐A1AR (Homo sapiens) | 0.245 |
| Nc1scc(-c2cccc(C(F)(F)F)c2)c1C(=O)c1ccccc1 [VCP171] | human Nluc‐A1AR (Homo sapiens) | 40.7 |

====

Entries and their measured Kd follow.
measurement_target: rat Nluc‐A1AR (Rattus norvegicus, UniProt P25099)
Sequence (P25099 2-326 limits assumed): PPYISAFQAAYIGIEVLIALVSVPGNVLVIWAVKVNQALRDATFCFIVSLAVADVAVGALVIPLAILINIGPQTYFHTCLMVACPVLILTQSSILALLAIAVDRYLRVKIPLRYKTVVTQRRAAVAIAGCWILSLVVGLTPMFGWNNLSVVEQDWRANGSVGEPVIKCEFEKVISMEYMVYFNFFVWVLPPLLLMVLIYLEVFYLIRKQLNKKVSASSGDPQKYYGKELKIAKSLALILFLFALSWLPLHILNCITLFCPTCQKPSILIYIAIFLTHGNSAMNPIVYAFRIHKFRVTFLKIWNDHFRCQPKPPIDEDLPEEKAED
method: Fluorescent agonist saturation binding in presence/absence of allosteric modulator (NanoBRET)
Design: expressed in transfected cells
assay_setup: Rat Nluc A1R, PD 81,723 0 (control)
Description: Pooled fluorescent agonist saturation assays obtained in the presence and absence of a fixed concentration of allosteric modulator were simultaneously fitted to the following equation: BRET ratio=Bmax×B/B+KD+M×B+C.

| chemical_structure | Kd [nM] |
| --- | --- |
| O=C(CCCCCNC(=O)COc1ccc(/C=C/C2=[N+]3C(=Cc4ccc(-c5cccs5)n4[B-]3(F)F)C=C2)cc1)NCCCCNc1ncnc2c1ncn2[C@@H]1O[C@H](CO)[C@@H](O)[C@H]1O | 955 |
| CCNC(=O)[C@H]1O[C@@H](n2cnc3c(NCCCCNC(=O)CCCCCNC(=O)COc4ccc(/C=C/C5=[N+]6C(=Cc7ccc(-c8cccs8)n7[B-]6(F)F)C=C5)cc4)ncnc32)[C@H](O)[C@@H]1O | 1820 |

====

measurement_target: rat Nluc‐A1AR (Rattus norvegicus, UniProt P25099)
method: NanoBRET competition binding: inhibition of specific binding of CA200645
Reported Ki values for a set of compounds
metric: Ki (µM)

| chemical_structure | metric | measured_result |
| --- | --- | --- |
| O=C(Cc1ccccc1)Nc1nc2ccc(Cl)cc2c2nc(-c3ccco3)nn12 | Ki | 1.07 |
| N#Cc1c(N)nc(SCc2csc(-c3ccc(Cl)cc3)n2)c(C#N)c1-c1ccc(OCCO)cc1 | Ki | 0.102 |
| Nc1scc(-c2cccc(C(F)(F)F)c2)c1C(=O)c1ccccc1 | Ki | 70.8 |
| Nc1sc(-c2ccc(C(=O)NCCCCCCNc3ncnc4c3ncn4[C@@H]3O[C@H](CO)[C@@H](O)[C@H]3O)cc2)c(-c2cccc(C(F)(F)F)c2)c1C(=O)c1ccccc1 | Ki | 9.55 |
